tested on: HepG2; assay: cytotoxicity call (relative viability < 0.9); conditions: 10 µM
The campaign covered roughly 39,000 compounds. About 3,300 (8.5%) were called active. The list comes from a sample in which actives are over-represented; it also holds close analogues and randomly drawn compounds.
Your answer must be one of the following: T = active, F = inactive

Query: What is the recorded call for this molecule in the test? Nc1cccc(-c2cccs2)c1
Result: F

Query: What is the recorded call for this molecule in the test? O=c1nc[nH]c2c1ncn2[C@@H]1C[C@@H](O)[C@H](CO)O1
Result: F

Query: What is the recorded call for this molecule in the test? COc1ccc2c(c1)OCC(=Cc1ccc(OC)c(O)c1)C2=O
Result: T

Query: What is the recorded call for this molecule in the test? COc1ccc(NC(=O)N(C)C[C@H]2OCCCC[C@@H](C)Oc3ccc(NC(=O)Nc4c(C)noc4C)cc3C(=O)N([C@H](C)CO)C[C@@H]2C)cc1
Result: F

Query: What is the recorded call for this molecule in the test? COc1ccc2c(c1)OCC(Cc1ccc(O)c(OC)c1)C2=O (configuration not stated)
Result: F

Query: What is the recorded call for this molecule in the test? C[C@H](CO)N1C[C@H](C)[C@@H](CN(C)C(=O)C2CC2)OCc2cnnn2CCCC1=O
Result: F

Query: What is the recorded call for this molecule in the test? Cc1noc(C)c1S(=O)(=O)N(C)C[C@H]1Oc2ccc(NS(=O)(=O)c3ccc(Cl)cc3)cc2CC(=O)N([C@@H](C)CO)C[C@@H]1C
Result: F

Query: What is the recorded call for this molecule in the test? NC(=O)CN1C(=O)C(=O)c2cc(Cl)ccc21
Result: F

Query: What is the recorded call for this molecule in the test? NCC[C@H]1CC[C@@H](NC(=O)C2CCCC2)[C@@H](CO)O1
Result: F

Query: What is the recorded call for this molecule in the test? C[C@@H]1CCCCO[C@H](CN(C)S(C)(=O)=O)[C@@H](C)CN([C@@H](C)CO)C(=O)c2cc(N(C)C)ccc2O1
Result: F

Query: What is the recorded call for this molecule in the test? COc1ccc([C@H]2CC=CC[C@H](C)Oc3ccccc3C(=O)N(C)[C@H](Cc3ccccc3)C(=O)N2)c(OC)c1
Result: F

Query: What is the recorded call for this molecule in the test? C[C@@H]1CCCCO[C@H](CN(C)C(=O)Cc2ccccc2)[C@@H](C)CN([C@H](C)CO)C(=O)c2cc(NS(=O)(=O)c3ccc(Cl)cc3)ccc2O1
Result: F

Query: What is the recorded call for this molecule in the test? C[C@@H]1CCCCO[C@@H](CN(C)S(=O)(=O)c2ccc(Cl)cc2)[C@H](C)CN([C@@H](C)CO)C(=O)c2cc(NC(=O)Cc3ccccc3)ccc2O1
Result: F

Query: What is the recorded call for this molecule in the test? O=C(C[C@@H]1C=C[C@H](NC(=O)C2CC2)[C@@H](CO)O1)NCCCN1CCOCC1
Result: F

Query: What is the recorded call for this molecule in the test? C[C@@H]1CN([C@@H](C)CO)C(=O)c2cc(NC(=O)CCC(F)(F)F)ccc2O[C@@H](C)CCCCO[C@@H]1CN(C)CC1CCCCC1
Result: F

Query: What is the recorded call for this molecule in the test? COCCOC(=O)N1C(=O)[C@@]2(c3ccccc31)[C@H](c1ccc(O)cc1)N1[C@H](c3ccccc3)[C@H](c3ccccc3)OC(=O)[C@H]1[C@@H]2C(=O)N1CCc2cc(OC)c(OC)cc2C1
Result: F

Query: What is the recorded call for this molecule in the test? COc1ccc2c(c1)OCC(Cc1ccc(OC)c(O)c1)C2=O (configuration not stated)
Result: T

----------
system: HepG2; test: cytotoxicity call (relative viability < 0.9); settings: 10 µM
Out of some 39,000 compounds screened, about 3,300 (8.5%) were called active. The sample holds actives, similar compounds and a random draw of the others, so the mix is not that of the screen.
Your answer must be one of the following: active, inactive

Query: What is the recorded call for this compound in the test? C[C@H](CO)N1C[C@H](C)[C@@H](CN(C)Cc2ccc(Cl)c(Cl)c2)Oc2ccc(NC(=O)Cc3cn(C)c4ccccc34)cc2CC1=O
Result: inactive

Query: What is the recorded call for this compound in the test? C[C@H]1CN([C@@H](C)CO)C(=O)c2cc(NC(=O)Cc3cn(C)c4ccccc34)ccc2O[C@H]1CN(C)Cc1ccc(Cl)c(Cl)c1
Result: inactive

Query: What is the recorded call for this compound in the test? COc1ccc(S(=O)(=O)N(C)C[C@@H]2OCCCC[C@H](C)Oc3ccc(NC(=O)Nc4ccccc4)cc3C(=O)N([C@H](C)CO)C[C@@H]2C)cc1
Result: inactive

Query: What is the recorded call for this compound in the test? Nc1ncn([C@@H]2C[C@H](O)[C@@H](CO)O2)c(=O)n1
Result: inactive

Query: What is the recorded call for this compound in the test? Cc1ccc2nc(CN)cn2c1
Result: inactive

Query: What is the recorded call for this compound in the test? Nc1ccn([C@@H]2O[C@H](CO)[C@H](O)[C@@H]2O)c(=O)n1
Result: inactive

Query: What is the recorded call for this compound in the test? OC[C@H]1O[C@@H](n2cnc3c(NC4CCCC4)ncnc32)[C@H](O)[C@@H]1O
Result: inactive

Query: What is the recorded call for this compound in the test? Cc1noc(C2CNC2)n1
Result: inactive

Query: What is the recorded call for this compound in the test? C[C@H]1CN([C@@H](C)CO)C(=O)c2cc(NS(=O)(=O)c3cn(C)cn3)ccc2O[C@H]1CN(C)C(=O)Nc1ccc2c(c1)OCO2
Result: inactive

Query: What is the recorded call for this compound in the test? O=C(O)C[C@@H]1CC[C@@H]2[C@H](COC[C@H](O)CN2S(=O)(=O)c2ccc(F)cc2)O1
Result: inactive

Query: What is the recorded call for this compound in the test? COc1ccsc1C(N)=O
Result: inactive

Query: What is the recorded call for this compound in the test? COc1cccc(-c2ccc3c(c2)O[C@H](CN(C)Cc2cncnc2)[C@H](C)CN([C@@H](C)CO)S3(=O)=O)c1
Result: inactive

Query: What is the recorded call for this compound in the test? C[C@@H]1CCCCO[C@@H](CN(C)S(=O)(=O)c2ccccc2)[C@H](C)CN([C@H](C)CO)C(=O)c2cc(NC(=O)c3ccccc3)ccc2O1
Result: inactive

Query: What is the recorded call for this compound in the test? C[C@H](CO)N1C[C@H](C)[C@@H](CN(C)Cc2ccc(Cl)c(Cl)c2)Oc2ccc(NC(=O)Cc3cn(C)c4ccccc34)cc2C1=O
Result: inactive

Query: What is the recorded call for this compound in the test? CC(C)=CCC[C@@H](C)CCO
Result: inactive

Query: What is the recorded call for this compound in the test? COc1ccc(NC(=O)N(C)C[C@@H]2OCCCC[C@H](C)Oc3ccc(NC(=O)c4ccccc4)cc3C(=O)N([C@H](C)CO)C[C@H]2C)cc1
Result: inactive

Query: What is the recorded call for this compound in the test? C[C@@H]1CN([C@H](C)CO)C(=O)Cc2cc(NC(=O)Nc3ccc(F)cc3)ccc2O[C@H]1CN(C)CC1CCCCC1
Result: active

----------
tested on: HepG2; test: cytotoxicity call (relative viability < 0.9); details: 10 µM
In all, about 39,000 compounds went through this assay and about 3,300 (8.5%) were called active. This excerpt belongs to a sample that is enriched for actives.
Your answer must be one of the following: True = active, False = inactive

Query: What is the recorded call for this molecule in the test? C[C@H]1CN([C@@H](C)CO)C(=O)c2cc(NC(=O)Nc3ccc(F)cc3)ccc2O[C@H]1CN(C)Cc1ccc(Oc2ccccc2)cc1
Result: False

Query: What is the recorded call for this molecule in the test? C[C@H]1CN([C@@H](C)CO)C(=O)c2cc(C#CC3(O)CCCC3)cnc2O[C@@H]1CN(C)S(=O)(=O)c1ccc(F)cc1
Result: False

Query: What is the recorded call for this molecule in the test? C[C@@H]1CN([C@@H](C)CO)C(=O)c2cc(NC(=O)Nc3ccc(F)cc3)ccc2O[C@@H]1CN(C)Cc1ccc(Oc2ccccc2)cc1
Result: True

Query: What is the recorded call for this molecule in the test? C[C@H](CO)N1C[C@H](C)[C@@H](CN(C)C(=O)Nc2ccccc2C(F)(F)F)OCc2ccccc2-c2ccccc2C1=O
Result: False

Query: What is the recorded call for this molecule in the test? COc1ccc(NC(=O)Nc2ccc3c(c2)C(=O)N([C@H](C)CO)C[C@@H](C)[C@H](CN(C)S(C)(=O)=O)O3)cc1
Result: True

Query: What is the recorded call for this molecule in the test? CC1CC2C3CCC4=CC(=O)C=CC4(C)C3(Cl)C(O)CC2(C)C1(OC(=O)c1ccco1)C(=O)CCl (centres undefined)
Result: True

Query: What is the recorded call for this molecule in the test? C[C@@H]1CCCCO[C@@H](CN(C)S(=O)(=O)c2cccs2)[C@@H](C)CN([C@H](C)CO)C(=O)c2cc(NC(=O)CCC(F)(F)F)ccc2O1
Result: False

Query: What is the recorded call for this molecule in the test? C[C@@H]1CN([C@@H](C)CO)C(=O)c2cc(NC(=O)Nc3ccc(F)cc3)ccc2O[C@H]1CN(C)Cc1ccc(Oc2ccccc2)cc1
Result: False

Query: What is the recorded call for this molecule in the test? Cc1noc(C)c1NC(=O)N(C)C[C@@H]1Oc2c(NC(=O)NC(C)C)cccc2C(=O)N([C@@H](C)CO)C[C@@H]1C
Result: False

Query: What is the recorded call for this molecule in the test? COc1ccc(NC(=O)Nc2ccc3c(c2)C(=O)N([C@@H](C)CO)C[C@H](C)[C@H](CN(C)S(C)(=O)=O)O3)cc1
Result: True

Query: What is the recorded call for this molecule in the test? Cc1ccc(S(=O)(=O)Nc2ccc3c(c2)C(=O)N([C@@H](C)CO)C[C@@H](C)[C@@H](CN(C)S(C)(=O)=O)O3)cc1
Result: False

Query: What is the recorded call for this molecule in the test? CO[C@H]1CN(C)C(=O)c2ccc(NC(=O)Nc3ccc(Cl)cc3)cc2OC[C@@H](C)N(C(=O)Nc2c(C)noc2C)C[C@@H]1C
Result: False

Query: What is the recorded call for this molecule in the test? C[C@@H]1CN([C@H](C)CO)C(=O)c2cc(NC(=O)Nc3ccc(F)cc3)ccc2O[C@H]1CN(C)Cc1ccc(Oc2ccccc2)cc1
Result: True

Query: What is the recorded call for this molecule in the test? COc1ccc(NC(=O)Nc2ccc3c(c2)C(=O)N([C@@H](C)CO)C[C@@H](C)[C@H](CN(C)S(C)(=O)=O)O3)cc1
Result: False
